biological target: C-C chemokine receptor type 1 (Homo sapiens, UniProt P32246); assay: Displacement of [3H]-CCR2-RA-[R] from human TEV protease site linked CCR1 expressed in human U20S cell membranes co-expressing Gal4-VP16 transcription factor after 120 mins by scintillation spectrometry
Sequence (P32246 whole entry, the tested form may be a part): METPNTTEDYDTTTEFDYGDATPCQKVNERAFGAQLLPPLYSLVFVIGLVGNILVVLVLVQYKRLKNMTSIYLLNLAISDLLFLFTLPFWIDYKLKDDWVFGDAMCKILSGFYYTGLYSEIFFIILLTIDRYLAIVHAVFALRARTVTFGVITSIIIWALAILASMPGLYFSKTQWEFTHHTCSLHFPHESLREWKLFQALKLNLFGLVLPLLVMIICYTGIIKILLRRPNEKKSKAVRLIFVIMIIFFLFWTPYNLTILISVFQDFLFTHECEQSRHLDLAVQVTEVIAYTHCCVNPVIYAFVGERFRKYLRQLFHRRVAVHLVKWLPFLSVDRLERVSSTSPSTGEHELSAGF
parameter-measured: pKi
On this scale, pKi is minus log10 of a concentration expressed in M (mol/L).

# returns recorded pKi (system: C-C chemokine receptor type 1 (Homo sapiens, UniProt P32246)) for CC(=O)C1=C(O)C(=O)N(c2ccc(Br)cc2F)C1C1CCCCC1 (stereo unspecified)
8.00
